# studySystem: HLA-A*03:01
# experimentSummary: IEDB peptide-MHC binding, purified MHC/direct/fluorescence; filed as Kd, often an IC50 or EC50 that approximates it; bounds were set here for any values at or beyond the usual limits of such assays
# runParameters: source organism: Mycobacterium tuberculosis str. Haarlem
recordedMetric: Kd

Which Kd value is on record for "RLGWRTLDF" ?
≥ 20 µM

---

# studySystem: HLA-B*58:01
# experimentSummary: IEDB peptide-MHC binding, purified MHC/direct/fluorescence; filed as Kd, often an IC50 or EC50 that approximates it; bounds were set here for any values at or beyond the usual limits of such assays
# runParameters: source organism: West Nile virus
pKd: −log10 of the molar value.
recordedMetric: pKd

Which pKd value is on record for "TRAVGKPLL" ?
≤ 4.70

---

# studySystem: HLA-A*68:02
# experimentSummary: IEDB peptide-MHC binding, purified MHC/competitive/radioactivity; filed as Kd, often an IC50 or EC50 that approximates it; bounds were set here for any values at or beyond the usual limits of such assays
# runParameters: source organism: Hepacivirus hominis
recordedMetric: Kd (µM)
One number for each entry, in µM.

Short answer please: Kd, HLA-A*68:02, entry "KLSGLGFNAV"
6.11

---

# studySystem: HLA-C*06:02
# experimentSummary: IEDB peptide-MHC binding, purified MHC/direct/fluorescence; filed as Kd, often an IC50 or EC50 that approximates it; bounds were set here for any values at or beyond the usual limits of such assays
# runParameters: source organism: Hantaan virus 76-118
recordedMetric: pKd
Numbers only, as −log10 of the molar value.

Which pKd value is on record for "IRKPKHLYV" ?
7.51

---

# studySystem: HLA-B*58:01
# experimentSummary: IEDB peptide-MHC binding, purified MHC/direct/fluorescence; filed as Kd, often an IC50 or EC50 that approximates it; bounds were set here for any values at or beyond the usual limits of such assays
# runParameters: source organism: Aggregatibacter actinomycetemcomitans
recordedMetric: pKd
Numbers only, as −log10 of the molar value.

Which pKd value is on record for "RSEVELCIY" ?
6.18

---

# studySystem: HLA-B*15:01
# experimentSummary: IEDB peptide-MHC binding, purified MHC/direct/fluorescence; filed as Kd, often an IC50 or EC50 that approximates it; bounds were set here for any values at or beyond the usual limits of such assays
# runParameters: source organism: Francisella tularensis subsp. tularensis FSC033
recordedMetric: Kd

Which Kd value is on record for "ETLDVFGPI" ?
≥ 20 µM

---

# studySystem: HLA-A*26:01
# experimentSummary: IEDB peptide-MHC binding, purified MHC/competitive/fluorescence; filed as Kd, often an IC50 or EC50 that approximates it; bounds were set here for any values at or beyond the usual limits of such assays
# runParameters: source organism: Yersinia pestis Nepal516
recordedMetric: pKd
Numbers only, as −log10 of the molar value.

Short answer please: pKd, HLA-A*26:01, entry "MVLSGTLAY"
6.30

---

# studySystem: HLA-A*11:01
# experimentSummary: IEDB peptide-MHC binding, purified MHC/competitive/radioactivity; filed as Kd, often an IC50 or EC50 that approximates it; bounds were set here for any values at or beyond the usual limits of such assays
# runParameters: source organism: Mammarenavirus juninense
recordedMetric: Kd (nM)
One number for each entry, in nM.

   sequencecode  val
0     MALFQPANK   48

--- query ---
Which Kd value is on record for "SKQYIHCFRK" ?
1520

---

# studySystem: HLA-A*02:01
# experimentSummary: IEDB peptide-MHC binding, purified MHC/direct/fluorescence; filed as Kd, often an IC50 or EC50 that approximates it; bounds were set here for any values at or beyond the usual limits of such assays
# runParameters: source organism: Burkholderia mallei
recordedMetric: Kd

Which Kd value is on record for "FEIGNGDAG" ?
≥ 20 µM

---

# studySystem: HLA-A*23:01
# experimentSummary: IEDB peptide-MHC binding, purified MHC/competitive/radioactivity; filed as Kd, often an IC50 or EC50 that approximates it; bounds were set here for any values at or beyond the usual limits of such assays
# runParameters: source organism: Dengue virus 1 Brazil/97-11/1997
recordedMetric: Kd
In your response, the unit should come after the numeric value.

Which Kd value is on record for "VTAKWLWGF" ?
417 nM

---

# studySystem: HLA-B*40:01
# experimentSummary: IEDB peptide-MHC binding, purified MHC/direct/fluorescence; filed as Kd, often an IC50 or EC50 that approximates it; bounds were set here for any values at or beyond the usual limits of such assays
# runParameters: source organism: Influenza A virus (A/quail/Hong Kong/FY298/00(H9N2))
pKd: −log10 of the molar value.
recordedMetric: pKd

Which pKd value is on record for "ALTLNTMTK" ?
≤ 4.70

---

# studySystem: HLA-A*68:02
# experimentSummary: IEDB peptide-MHC binding, purified MHC/direct/fluorescence; filed as Kd, often an IC50 or EC50 that approximates it; bounds were set here for any values at or beyond the usual limits of such assays
# runParameters: source organism: Giardia lamblia ATCC 50803
pKd: −log10 of the molar value.
Answer each item with its documented pKd.

>>> print(df.to_string())
   sequencecode     val
0     IARLVYKAR  ≤ 4.70

--- query ---
Which pKd value is on record for "EIRHRSGIQ" ?
≤ 4.70

---

# studySystem: HLA-B*44:02
# experimentSummary: IEDB peptide-MHC binding, purified MHC/direct/fluorescence; filed as Kd, often an IC50 or EC50 that approximates it; bounds were set here for any values at or beyond the usual limits of such assays
# runParameters: source organism: Mammarenavirus brazilense
pKd: −log10 of the molar value.
recordedMetric: pKd

Which pKd value is on record for "EFKSRFFVM" ?
≤ 4.70

---

Answer each item with its documented pKd.
# studySystem: HLA-A*03:01
# experimentSummary: IEDB peptide-MHC binding, purified MHC/competitive/radioactivity; filed as Kd, often an IC50 or EC50 that approximates it; bounds were set here for any values at or beyond the usual limits of such assays
# runParameters: source organism: Dengue virus 2 Jamaica/1409/1983
One number for each entry, as −log10 of the molar value.

Would you please look over these solved cases?
   sequencecode   val
0     LLLRKLTSK  7.54
1    RMLINRFTMK  8.21
2    ALNDMGKVRK  7.44

--- query ---
Which pKd value is on record for "WSYYCGGLK" ?
8.89

---

# studySystem: HLA-B*18:01
# experimentSummary: IEDB peptide-MHC binding, purified MHC/direct/fluorescence; filed as Kd, often an IC50 or EC50 that approximates it; bounds were set here for any values at or beyond the usual limits of such assays
# runParameters: source organism: Giardia lamblia ATCC 50803
pKd: −log10 of the molar value.
recordedMetric: pKd

Which pKd value is on record for "EIRHRSGIQ" ?
≤ 4.70

---

# studySystem: HLA-A*30:02
# experimentSummary: IEDB peptide-MHC binding, purified MHC/competitive/radioactivity; filed as Kd, often an IC50 or EC50 that approximates it; bounds were set here for any values at or beyond the usual limits of such assays
# runParameters: source organism: Mammarenavirus brazilense
recordedMetric: Kd (µM)
Answers are plain numbers, in µM.

Short answer please: Kd, HLA-A*30:02, entry "TADDITMGY"
9.93

---

# studySystem: HLA-B*58:01
# experimentSummary: IEDB peptide-MHC binding, purified MHC/direct/fluorescence; filed as Kd, often an IC50 or EC50 that approximates it; bounds were set here for any values at or beyond the usual limits of such assays
# runParameters: source organism: Mammarenavirus brazilense
recordedMetric: Kd

Which Kd value is on record for "EFKSRFFVM" ?
≥ 20 µM

---

Answer each item with its documented pKd.
# studySystem: HLA-A*32:01
# experimentSummary: IEDB peptide-MHC binding, purified MHC/competitive/radioactivity; filed as Kd, often an IC50 or EC50 that approximates it; bounds were set here for any values at or beyond the usual limits of such assays
# runParameters: source organism: Lymphocytic choriomeningitis virus (strain Armstrong)
pKd: −log10 of the molar value.

Please look at the items below and tell me pKd for each one, in order.
1. DSEEYHLLY
2. KTGESSRCY

1: ≤ 4.11; 2: ≤ 4.11

---

Answer each item with its documented pKd.
# studySystem: HLA-B*46:01
# experimentSummary: IEDB peptide-MHC binding, purified MHC/direct/fluorescence; filed as Kd, often an IC50 or EC50 that approximates it; bounds were set here for any values at or beyond the usual limits of such assays
# runParameters: source organism: Giardia lamblia ATCC 50803
pKd: −log10 of the molar value.

Please look at the items below and tell me pKd for each one, in order.
1. WSDLNTTDF
2. EIRHRSGIQ
3. IARLVYKAR

≤ 4.70
≤ 4.70
≤ 4.70

---

# studySystem: HLA-B*48:01
# experimentSummary: IEDB peptide-MHC binding, purified MHC/direct/fluorescence; filed as Kd, often an IC50 or EC50 that approximates it; bounds were set here for any values at or beyond the usual limits of such assays
# runParameters: source organism: Salmonella enterica
pKd: −log10 of the molar value.
recordedMetric: pKd

Which pKd value is on record for "EIIFYHPTF" ?
≤ 4.70
